Numbers sourced from the supplement of paper PMC10567573.

Kindly state protein stability index for each of the entries shown.
B1: PSD2 (parent)
chain: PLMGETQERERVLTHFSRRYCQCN

Variants of: B1
Test: protein stability index of a GFP-peptide fusion (GPS, HEK-293T) (PSI 1-6); higher = more stable;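 further: lentivirally expressed fusions sorted by FACS into six bins by GFP to DsRed ratio, PSI derived from sequencing read proportions per bin multiplied by bin number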
Details: c terminus: a fixed tail appended
No unit in the answer, only the number.

Prompt: Item under review: PLMGETQERERVMTHFSRRYCQCN [L13M] . Reported protein stability index?
Completion: 3.3

Prompt: Param item = PLMGETQERERVFTHFSRRYCQCN [L13F] ; retrieve measured protein stability index.
Completion: 2.51

Prompt: Recorded protein stability index of PLMGETQERERVLTHFSRRYWQCN [C21W] , please.
Completion: 3.17

Prompt: Fill blank: measured protein stability index of the variant PLMGETQERERVLTHFSREYCQCN [R19E] is ____.
Completion: 3.74

Prompt: I'd like to know its protein stability index. The variant in question is TLMGETQERERVLTHFSRRYCQCN [P1T]
Completion: 2.58

Prompt: Need protein stability index, item PLMGETQERERVLYHFSRRYCQCN [T14Y]
Completion: 1.71

Prompt: State the recorded protein stability index for this entry: PLMGETQERERVLRHFSRRYCQCN [T14R]
Completion: 2.73

Prompt: Reported protein stability index for PLMGETQERERVLTHFSRLYCQCN [R19L] : what is it?
Completion: 2.4

Prompt: Need protein stability index of PLMGETQERERRLTHFSRRYCQCN [V12R] , thanks.
Completion: 3.15

Prompt: If you can, please state the reported protein stability index value of PLMGEMQERERVLTHFSRRYCQCN [T6M] .
Completion: 2.52

Prompt: What value of protein stability index has been recorded for this entry: PLMGETQERERVLTHFTRRYCQCN [S17T]
Completion: 2.15

Prompt: Please report the recorded protein stability index for PLMGETQERERVLTHFSRRYCQCC [N24C] .
Completion: 3.05

Prompt: Please give the measured protein stability index for this variant: PLMGETQEPERVLTHFSRRYCQCN [R9P]
Completion: 3.29

Prompt: // returns reported protein stability index for input PLMGETQERERVLTHFSIRYCQCN [R18I]
Completion: 2.27

Prompt: Which protein stability index value is on record for PLMGETQERERVNTHFSRRYCQCN [L13N] ?
Completion: 2.93

Prompt: Entry PLCGETQERERVLTHFSRRYCQCN [M3C] : reported protein stability index = ?
Completion: 2.61

Prompt: Sample PLMGVTQERERVLTHFSRRYCQCN [E5V] — what was its protein stability index?
Completion: 1.92

Prompt: Look up protein stability index for this variant: PLMGETQERERVLTQFSRRYCQCN [H15Q]
Completion: 1.99

Prompt: protein stability index lookup needed for PLMGETQERVRVLTHFSRRYCQCN [E10V] , thanks.
Completion: 2.31

Prompt: Look up protein stability index for this variant: PLMGETQERERVLTHFSRRHCQCN [Y20H]
Completion: 2.43

Prompt: Param item = PNMGETQERERVLTHFSRRYCQCN [L2N] ; retrieve measured protein stability index.
Completion: 3.42

Prompt: Give the measured protein stability index of PLMGETQERERVLTHFSRRTCQCN [Y20T] .
Completion: 3.63

Prompt: Need protein stability index of PLMGEIQERERVLTHFSRRYCQCN [T6I] , thanks.
Completion: 2.38

Prompt: Data request, read-out protein stability index, for PLMGETQEEERVLTHFSRRYCQCN [R9E]
Completion: 4.05

Prompt: Given the variant PLMGETQERERVLTHFSRDYCQCN [R19D] , what is its reported protein stability index?
Completion: 3.25

Prompt: Look at this variant and give its reported protein stability index. PLMGETQERERVLTHFFRRYCQCN [S17F]
Completion: 1.68

Prompt: Fill blank: measured protein stability index of the variant PLLGETQERERVLTHFSRRYCQCN [M3L] is ____.
Completion: 3.15

Prompt: Requested field: protein stability index. Item: PLMGETQERERVLTHFSQRYCQCN [R18Q]
Completion: 2.77

Prompt: Report protein stability index for PLMGETQERERVPTHFSRRYCQCN [L13P] please.
Completion: 3.19

Prompt: // query protein stability index value for entry PLMHETQERERVLTHFSRRYCQCN [G4H]
Completion: 2.93

Prompt: Name the recorded protein stability index for PLMCETQERERVLTHFSRRYCQCN [G4C] .
Completion: 2.49

Prompt: Param item = PGMGETQERERVLTHFSRRYCQCN [L2G] ; retrieve measured protein stability index.
Completion: 4.03

Prompt: Could you tell me which protein stability index is on file for PLMGETQERERVLMHFSRRYCQCN [T14M] ?
Completion: 2.72

Prompt: // protein stability index lookup, key: PLMGNTQERERVLTHFSRRYCQCN [E5N]
Completion: 2.69

Prompt: What protein stability index value was documented for this variant, PLMGKTQERERVLTHFSRRYCQCN [E5K] ?
Completion: 2.2

Prompt: I would be grateful if you could share the reported protein stability index for PAMGETQERERVLTHFSRRYCQCN [L2A] .
Completion: 3.59

Prompt: # query: protein stability index of entry PLMGETQERETVLTHFSRRYCQCN [R11T]
Completion: 3.06

Prompt: Request the reported protein stability index associated with PLMGETQERERVLTHFSRRGCQCN [Y20G]
Completion: 3.86

Prompt: Form field: reported protein stability index of PLMGETQERERVLTHFHRRYCQCN [S17H]
Completion: 3.2

Prompt: Quick check: protein stability index of PLHGETQERERVLTHFSRRYCQCN [M3H] ?
Completion: 3.22

Prompt: Bench note: what protein stability index did PLMGETQERERVLTMFSRRYCQCN [H15M] show?
Completion: 2.56

Prompt: Look up protein stability index for this variant: PLMGETQERWRVLTHFSRRYCQCN [E10W]
Completion: 1.87

Prompt: Which value of protein stability index has been reported for PLMGETQERERVLTHCSRRYCQCN [F16C] in the records?
Completion: 4.41

Prompt: Name the recorded protein stability index for PLMGETQERERVETHFSRRYCQCN [L13E] .
Completion: 3.6

Prompt: GET /values?readout=protein stability index&item= PLMGETQERERVLTHISRRYCQCN [F16I]
Completion: 2.67

Prompt: Item PLMGETQERERVLTHFSRRPCQCN [Y20P] has what recorded protein stability index?
Completion: 3.72

Prompt: Would you mind telling me what protein stability index value was observed for PLMGETQERERVLTHFSRRYCQGN [C23G] ?
Completion: 3.56

Prompt: State the recorded protein stability index for this entry: PCMGETQERERVLTHFSRRYCQCN [L2C]
Completion: 3.52

Prompt: // returns reported protein stability index for input PLMGETQLRERVLTHFSRRYCQCN [E8L]
Completion: 1.89

Prompt: Given the entry PLMGETQERERVLTHFSRRYCQYN [C23Y] , report its measured protein stability index.
Completion: 2.85

Prompt: If you can, please state the reported protein stability index value of PLMGETQERERVLTHFSRRYCCCN [Q22C] .
Completion: 2.11

Prompt: Given the entry PLMGETQERERVLTHFSRRYCQCY [N24Y] , report its measured protein stability index.
Completion: 2.22

Prompt: Could you tell me which protein stability index is on file for PLMGETQERERVLTHFSRRYCGCN [Q22G] ?
Completion: 2.29

Prompt: Entry PLMGETQERERVLTHFSRRYAQCN [C21A] : reported protein stability index = ?
Completion: 3.46

Prompt: Could you share which protein stability index value was measured for PLMGETQERERVLTHFSDRYCQCN [R18D] ?
Completion: 4.01

Prompt: Report protein stability index for PLMGETQERERVLTHFIRRYCQCN [S17I] please.
Completion: 1.49

Prompt: I have this variant here, PLMGYTQERERVLTHFSRRYCQCN [E5Y] , and I need its recorded protein stability index.
Completion: 1.83

Prompt: Consider the variant shown here: PLMGETQERERVLTHFVRRYCQCN [S17V] What is its recorded protein stability index?
Completion: 2.44

Prompt: # get_value(readout='protein stability index', item= PLMGETQERERVLTHFSYRYCQCN [R18Y] )
Completion: 1.97

Prompt: Fill blank: measured protein stability index of the variant PLMGETQERERHLTHFSRRYCQCN [V12H] is ____.
Completion: 3.24

Prompt: Field request: protein stability index | item: PLMGETQERELVLTHFSRRYCQCN [R11L]
Completion: 3.11

Prompt: Sample PLMWETQERERVLTHFSRRYCQCN [G4W] — what was its protein stability index?
Completion: 2.07

Prompt: Please look up its protein stability index: PLMGETQERERVLTRFSRRYCQCN [H15R]
Completion: 2.74

Prompt: Need protein stability index, item PLMGETQERERVTTHFSRRYCQCN [L13T]
Completion: 2.65

Prompt: Looking for the measured protein stability index of PLMGETQWRERVLTHFSRRYCQCN [E8W] , can you help?
Completion: 1.65

Prompt: Entry under review: PLMGETQERERVLEHFSRRYCQCN [T14E] . Reported protein stability index?
Completion: 2.93

Prompt: Look up protein stability index: PLMGETQERERVLTHFSRNYCQCN [R19N]
Completion: 3.54

Prompt: Recorded protein stability index of PLMGETQERERVLTHFSRRYCYCN [Q22Y] , please.
Completion: 2.08

Prompt: Item PLMGWTQERERVLTHFSRRYCQCN [E5W] has what recorded protein stability index?
Completion: 1.86

Prompt: Give the measured protein stability index of PLMGETQERERVLTHFSRRYKQCN [C21K] .
Completion: 2.88

Prompt: Which protein stability index value is on record for PLMGETQERERVLTHFSRRCCQCN [Y20C] ?
Completion: 3.91

Prompt: What does the data say about its protein stability index? Entry: PLMGETQERERVLTHFSRRYVQCN [C21V]
Completion: 3.68

Prompt: Endpoint output: protein stability index of PLMGETQERERELTHFSRRYCQCN [V12E] . Value?
Completion: 3.34

Prompt: Quick one: protein stability index for PLMGETQERERALTHFSRRYCQCN [V12A] ?
Completion: 3.49

Prompt: Could you tell me which protein stability index is on file for PLMGETQESERVLTHFSRRYCQCN [R9S] ?
Completion: 2.49

Prompt: Quick one: protein stability index of PLMGETQERERVLTHFSRRYCQWN [C23W] ?
Completion: 2.67
